# Assay Comment: RP, Agilent ZORBAX RRHD Eclipse Plus C18, 50 × 2.1 mm, 1.8 µm, 30 °C, 0.4 mL/min, estimated dead time 0.28 min; A: water + 0.1% formic acid, pH 3; B: acetonitrile + 0.1% formic acid, pH 3; gradient (min/%B) 0/1 5/10 8/25 9.1/99 10/99 12/99
# Cond: stereoisomer not certain
Counter-ions that a name gives are not always drawn.
Readout Kind: LC retention time (min)
Numbers only, in min.

COc1cc(CC(=O)O)ccc1OS(=O)(=O)O [Homovanillic acid sulfate] :: 2.12
O=C(O)c1ccccc1 :: 7.28
COc1ccc(C(=O)O)cc1O :: 1.99

Items follow; give LC retention time for each.
1. COc1cc(C(=O)O)ccc1O
2. O=C(O)CNC(=O)c1ccc(O)cc1 [4-Hydroxyhippuric acid]
3. O=C(O)C=Cc1ccccc1O
4. Cc1ccc(O)c(OS(=O)(=O)O)c1 [4-Methylcatechol-2-O-sulfate]
5. O=C(O)CNC(=O)c1cccc(O)c1 [3-Hydroxyhippuric acid]

1.83
1.63
8.67
3.83
1.88

Items follow; give LC retention time for each.
1. O=C(O)c1ccc(OS(=O)(=O)O)c(O)c1 [Protocatechuic acid-4-O-sulfate]
2. O=C(C=Cc1ccc(O)c(O)c1)OC1CC(O)(C(=O)O)CC(O)C1O (stereo not given)

[0.954, 4.49]
